Assay: in vitro
Conditions: human, hela cells, % viability, bulk resorufin, single well
EXPERIMENTAL_ENDPOINT: viability at 28.5 h, 10 µM (%)

[
  {
    "MOLECULE": "COc1cc(/C=C2\\C(=O)NC(=O)N(c3ccc(O)cc3)C2=O)cc(I)c1O",
    "VALUE_OBSERVED": 114
  },
  {
    "MOLECULE": "CCOc1ccc(N2C(=O)NC(=O)/C(=C/c3cn(CC(=O)Nc4ccccc4)c4ccccc34)C2=O)cc1",
    "VALUE_OBSERVED": 90.2
  },
  {
    "MOLECULE": "O=C(Nc1cc([N+](=O)[O-])ccc1O)c1cccc(C(=O)Nc2cc([N+](=O)[O-])ccc2O)c1",
    "VALUE_OBSERVED": 102
  },
  {
    "MOLECULE": "COc1ccc2c(c1)COC1(CCN(C(=O)Nc3ccc(N(C)C)cc3)CC1)O2",
    "VALUE_OBSERVED": 98.8
  },
  {
    "MOLECULE": "CN1CCC(C#N)(c2ccccc2F)CC1",
    "VALUE_OBSERVED": 99.3
  },
  {
    "MOLECULE": "NC(=O)C1=CN([C@@H]2O[C@H](CO)[C@H](O)C2O)C2N=CN=C(N)C12 (some centres unmarked)",
    "VALUE_OBSERVED": 0.996
  },
  {
    "MOLECULE": "COc1ccc2c(c1)COC1(CCN(C(=O)N[C@@H](C)c3ccccc3)CC1)O2",
    "VALUE_OBSERVED": 106
  },
  {
    "MOLECULE": "O=C(O)C1CC1C(=O)N1CCC2(CC1)OCc1cc(-c3ccco3)ccc1O2 (centres unmarked)",
    "VALUE_OBSERVED": 103
  },
  {
    "MOLECULE": "CCOC(=O)C1(c2ccccc2)CCN(C(=O)CCSC)CC1",
    "VALUE_OBSERVED": 113
  },
  {
    "MOLECULE": "Cc1ccc(N2C(=O)NC(=O)/C(=C\\c3ccc(OCC(=O)O)c(Br)c3)C2=O)cc1C",
    "VALUE_OBSERVED": 84
  },
  {
    "MOLECULE": "Cn1c(=O)c2[nH]c(NN=C3C(=O)NC(=O)NC3=O)nc2n(C)c1=O",
    "VALUE_OBSERVED": 103
  },
  {
    "MOLECULE": "CSc1cc(C)c2c(c1)COC1(CCN(C(=O)NC3CCCCC3)CC1)O2",
    "VALUE_OBSERVED": 97.4
  },
  {
    "MOLECULE": "CCOC(=O)C1(c2ccccc2)CCN(C(=O)C(c2ccccc2)c2ccccc2)CC1",
    "VALUE_OBSERVED": 100
  },
  {
    "MOLECULE": "O=C1NC(=S)NC(=O)C1=CNc1ccc(F)c(Cl)c1",
    "VALUE_OBSERVED": 118
  },
  {
    "MOLECULE": "CC(=O)N1CCC(C(=O)Nc2cccc(-c3ccc4c(c3)COC3(CCNCC3)O4)c2)CC1",
    "VALUE_OBSERVED": 91.4
  },
  {
    "MOLECULE": "Cc1cc(Br)ccc1N1C(=O)NC(=O)/C(=C\\c2ccc(-c3ccc(S(N)(=O)=O)cc3)o2)C1=O",
    "VALUE_OBSERVED": 97.4
  },
  {
    "MOLECULE": "O=C(Nc1ccc2c(c1)COC1(CCNCC1)O2)c1cc2cc(Cl)ccc2[nH]1 [CBK091529T]",
    "VALUE_OBSERVED": 71.3
  }
]

###

viability at 28.5 h, 10 µM reference
Test: in vitro
Settings: human, hela cells, % viability

[
  {
    "COMPOUND": "CS(=O)(=O)N1CC2(CCN(Cc3ccc(OC(F)(F)F)cc3)CC2)c2ccccc21 [CBK126668]",
    "viability at 28.5 h, 10 µM / %": 99.4
  },
  {
    "COMPOUND": "Cc1c(C)n(CC(O)CN2C(=O)c3ccccc3S2(=O)=O)c2ccccc12 (stereo not drawn) [CBK263960]",
    "viability at 28.5 h, 10 µM / %": 88.2
  },
  {
    "COMPOUND": "CC(=O)N(C)c1nc(-c2ccco2)ccc1C(=O)Nc1cc(C)nn1C [CBK106356]",
    "viability at 28.5 h, 10 µM / %": 89.3
  },
  {
    "COMPOUND": "Cc1cccc(-n2c(C#N)c(O)c3ccccc32)c1C [CBK115319]",
    "viability at 28.5 h, 10 µM / %": 106
  },
  {
    "COMPOUND": "CCSc1nnc(-c2cccc(C)c2)n1CC1CCCCC1 [CBK085419]",
    "viability at 28.5 h, 10 µM / %": 96.3
  },
  {
    "COMPOUND": "CS(=O)(=O)N1CCCc2cc(-c3csc(N)n3)ccc21 [CBK305859]",
    "viability at 28.5 h, 10 µM / %": 86.4
  },
  {
    "COMPOUND": "O=c1[nH]cc([C@H]2C[C@@H](O)[C@@H](CO)O2)c(=O)[nH]1 [CBK201158]",
    "viability at 28.5 h, 10 µM / %": 95.4
  },
  {
    "COMPOUND": "Cc1ccccc1NC(=O)Cn1cnc2c(cnn2-c2ccccc2)c1=O [CBK287530]",
    "viability at 28.5 h, 10 µM / %": 104
  },
  {
    "COMPOUND": "COC(=O)CCC(=O)Nc1ccc(S(N)(=O)=O)cc1 [CBK261351]",
    "viability at 28.5 h, 10 µM / %": 88.1
  },
  {
    "COMPOUND": "CN1CCCc2c1oc1c(OCc3cccnc3)cccc1c2=O [CBK007904]",
    "viability at 28.5 h, 10 µM / %": 92.1
  },
  {
    "COMPOUND": "CC1(C(=O)O)CCC(C(=O)O)C1(C)C (stereo not drawn) [CBK261830]",
    "viability at 28.5 h, 10 µM / %": 96.1
  },
  {
    "COMPOUND": "COc1nccnc1OC1CCN(CC(N)=O)CC1 [CBK084248]",
    "viability at 28.5 h, 10 µM / %": 86.7
  },
  {
    "COMPOUND": "CCCCOc1ccc(Oc2ncc(C(F)(F)F)cc2Cl)cc1 [CBK161629]",
    "viability at 28.5 h, 10 µM / %": 94.4
  },
  {
    "COMPOUND": "CS(=O)(=O)N1CCc2cc(-c3csc(NCC(F)(F)F)n3)ccc21 [CBK305650]",
    "viability at 28.5 h, 10 µM / %": 95.4
  },
  {
    "COMPOUND": "COc1ccccc1C/C(N)=N/OC(=O)COc1ccc2ccccc2c1 [CBK263730]",
    "viability at 28.5 h, 10 µM / %": 89.7
  },
  {
    "COMPOUND": "COc1ccc(OC)c(-c2nc(Nc3ccccc3C)sc2CC(=O)O)c1 [CBK126811]",
    "viability at 28.5 h, 10 µM / %": 101
  },
  {
    "COMPOUND": "CN1CCN(C(=O)CNS(=O)(=O)c2ccccc2)CC1 [CBK265767]",
    "viability at 28.5 h, 10 µM / %": 92.6
  },
  {
    "COMPOUND": "Cn1cc(C(=O)NC2CCN(C(=O)c3ccc4c(c3)CCC4)CC2)cn1 [CBK305664]",
    "viability at 28.5 h, 10 µM / %": 97.8
  },
  {
    "COMPOUND": "CNCc1ccccc1Sc1cccc(OC)c1 [CBK026207C]",
    "viability at 28.5 h, 10 µM / %": 103
  },
  {
    "COMPOUND": "Cc1ccn(CCC(=O)N2CCC[C@@H]3NC(=O)c4ccccc4OCC/C=C/C[C@@H]32)n1 [CBK292082]",
    "viability at 28.5 h, 10 µM / %": 109
  },
  {
    "COMPOUND": "CCOc1cc(CN2CCN(C/C=C/c3ccccc3)CC2)ccc1OC [CBK261573]",
    "viability at 28.5 h, 10 µM / %": 87.2
  },
  {
    "COMPOUND": "O=[N+]([O-])c1ccc(CN2CCC(Oc3nccnc3OC3CCCCC3)CC2)cc1 [CBK082861T]",
    "viability at 28.5 h, 10 µM / %": 90.4
  },
  {
    "COMPOUND": "Cc1cc(C)cc(N(CCC#N)C(=O)CSc2nnc[nH]2)c1 [CBK296955]",
    "viability at 28.5 h, 10 µM / %": 101
  },
  {
    "COMPOUND": "Cc1cc(=O)n(CC(=O)Nc2ccc3c(c2)OCO3)cn1 [CBK287835]",
    "viability at 28.5 h, 10 µM / %": 109
  },
  {
    "COMPOUND": "Clc1ccc2c(c1)CCC(NCC1COc3ccccc3O1)C2 (stereo not drawn) [CBK013077C]",
    "viability at 28.5 h, 10 µM / %": 97.5
  },
  {
    "COMPOUND": "COc1cc(C)c(Nc2cccc(-c3ccsc3)n2)cc1OC [CBK037025]",
    "viability at 28.5 h, 10 µM / %": 104
  },
  {
    "COMPOUND": "CN1CCN(C(=O)c2ccsc2NS(=O)(=O)/C=C/c2ccccc2)CC1 [CBK042267]",
    "viability at 28.5 h, 10 µM / %": 104
  },
  {
    "COMPOUND": "CC1CCc2nc3ccccc3c(C(=O)N(C)Cc3cnn(C)c3)c2C1 (stereo not drawn) [CBK305749]",
    "viability at 28.5 h, 10 µM / %": 96.9
  },
  {
    "COMPOUND": "CCOC(=O)c1c(NC(=O)CN2CCOCC2)sc2c1CCC2 [CBK262548]",
    "viability at 28.5 h, 10 µM / %": 102
  },
  {
    "COMPOUND": "Cc1nnc(Sc2ccc([N+](=O)[O-])cc2Cl)n1Cc1ccccc1 [CBK269694]",
    "viability at 28.5 h, 10 µM / %": 102
  },
  {
    "COMPOUND": "CCn1cc(C(=O)NN)c(=O)c2cc(F)c(N3CCSCC3)cc21 [CBK307148]",
    "viability at 28.5 h, 10 µM / %": 98.8
  },
  {
    "COMPOUND": "Cc1[nH]c(=O)[nH]c(=O)c1CCC(=O)OCc1nccn1Cc1ccccc1 [CBK297939]",
    "viability at 28.5 h, 10 µM / %": 82.1
  },
  {
    "COMPOUND": "COc1ncc(-c2cnc3[nH]c(=O)n([C@H](C)c4ccccc4)c3n2)cn1 [CBK064401]",
    "viability at 28.5 h, 10 µM / %": 85.3
  },
  {
    "COMPOUND": "CN(C)CCCN[C@H]1CC[C@@H](c2ccccc2)CC1 [CBK016465]",
    "viability at 28.5 h, 10 µM / %": 96.2
  },
  {
    "COMPOUND": "COc1ccc2cc(C(=O)N3CCC(c4ccncc4)CC3)[nH]c2c1 [CBK283799]",
    "viability at 28.5 h, 10 µM / %": 86.4
  },
  {
    "COMPOUND": "COCc1cc(C[C@H]2CNCC[C@H]2CC(=O)N2CCCCC2)no1 [CBK288899]",
    "viability at 28.5 h, 10 µM / %": 109
  },
  {
    "COMPOUND": "CC1CCc2n[nH]c(C(=O)N(C)CCc3ccncc3)c2C1 (stereo not drawn) [CBK283195]",
    "viability at 28.5 h, 10 µM / %": 99.5
  },
  {
    "COMPOUND": "Fc1ccc(CN(Cc2ccsc2)[C@@H]2COC[C@H]2c2ccc(F)cc2)cc1 [CBK286486]",
    "viability at 28.5 h, 10 µM / %": 92.8
  },
  {
    "COMPOUND": "Cn1c(O)c(CCNc2cc([C@H]3C[C@@H](N)C3)nc(C3CC3)n2)cnc1=O [CBK306819]",
    "viability at 28.5 h, 10 µM / %": 85
  }
]
